Experiment: Human HepG2 cell viability assay in 384 well format
Assay type: toxicity, cell-based
Parameters: dose 125 nL, time 70.5 hour; concentration not given beside the values
Details: HepG2 cells, read-out: Inhibition
Assay endpoint: cytotoxicity at 70.5 h (%)
Give bare numbers, in %.

Molecule	Unit label	Result value
Cn1ccnc1-c1cn(CCCc2csc(N)n2)nn1	%	-15.7
O=C1O[C@@H]2CN(Cc3ccccc3F)C[C@@H]2N1CCCN1CCOCC1	%	8.16
CNC(=O)CS(=O)(=O)Cc1cc(Cl)c2c(c1)OCCCO2	%	25.7
CCc1nc(CC(=O)N2CCC(C(=O)N(CC)CC)CC2)cs1	%	-11.2

Continue with the molecule presented below.
For this molecule ( CN1CCN(S(=O)(=O)N2CCCCC2CCc2ccc(O)cc2)CC1 (stereo not given) ), measured cytotoxicity at 70.5 h is -4.09

====

Assay: Human HepG2 cell viability assay in 384 well format
Assay type: toxicity, cell-based
Design: dose 125 nL, time 70.5 hour; concentration not given beside the values
Details: HepG2 cells, read-out: Inhibition
Assay endpoint: cytotoxicity at 70.5 h (%)
Give bare numbers, in %.

List the reported cytotoxicity at 70.5 h of each compound below.
1. COc1ncccc1CNCc1c(C(C)C)nn(C)c1OC
2. CNC(=O)Cc1ccc(-n2ccnc2-c2cccc(C(=O)O)c2)cc1
3. Cc1noc(C)c1CN1CCc2ncnc(-c3ccoc3)c2CC1

[-4.91, 17.5, 15.5]

====

Field: cytotoxicity at 70.5 h. Provide a value for each of the compounds that follow.
Experiment: Human HepG2 cell viability assay in 384 well format
Assay type: toxicity, cell-based
Design: dose 125 nL, time 70.5 hour; concentration not given beside the values
Conditions: HepG2 cells, read-out: Inhibition
One number for each entry, in %.

Examples from the recorded data:
Compound	cytotoxicity at 70.5 h (%)
Nc1cc(-c2cccs2)nn(CC(=O)NCC2CCCCC2)c1=O	-10
CCc1c(C(=O)N2CCC3(CC(=O)NC3=O)C2)csc1C (centres undefined)	-5.51
CNC(=O)NCC(CO)Cc1ccccc1OC(F)(F)F (centres undefined)	-5.84

Give measured cytotoxicity at 70.5 h for every item shown.
1. COCCN(C)C(C(=O)O)c1cc(Cl)ccc1OC (centres undefined)
2. CNC(=O)[C@@]12CCC3(CCN(S(C)(=O)=O)CC3)[C@@H]1CN(S(C)(=O)=O)C2

7.55
1.46

Below is a list of compounds. For each, state its recorded cytotoxicity at 70.5 h.
1. CCc1ccc(CN2CCNC(C(=O)N3CCN(C)CC3)C2)o1 (centres undefined)
2. Cc1nc(COCc2nc3c(o2)CN(C(=O)c2ccc[nH]2)C3)cs1

1: -3.44; 2: -3.29

Answer for every listed entry: what is its cytotoxicity at 70.5 h? The entries follow.
1. COc1ccc(NC(=O)CSc2nc(C)c(C)c(C)c2C#N)cn1
2. CCCN(CCC)C(=O)CN1CCCC1C(=O)N(C)C (centres undefined)

-2.39
-5.85

====

Field: cytotoxicity at 70.5 h. Provide a value for each of the compounds that follow.
Assay: Human HepG2 cell viability assay in 384 well format
Assay type: toxicity, cell-based
Design: dose 125 nL, time 70.5 hour; concentration not given beside the values
Conditions: HepG2 cells, read-out: Inhibition
One number for each entry, in %.

For each listed entry, give its cytotoxicity at 70.5 h.
1. c1ccc2c(Cc3nnc([C@H]4CCN(C5CCC5)C4)o3)c[nH]c2c1
2. CO[C@@H]1CC[C@H]2[C@H]1OCCN2C(=O)C1=CCCC1
3. CN(C)CC1(O)CCN(C(=O)c2cnc(-c3cccnc3)nc2)C1 (stereo unspecified)
4. O=S1(=O)NC(c2ccnc(N3CCCCC3)n2)=Nc2ccccc21
5. c1ccc(CN2CCc3nnc(CN4CCCCC4)n3CC2)nc1
6. CCc1c(C(=O)O)nnn1-c1cc(C)cc(C)c1
7. CNC(=O)C1(CCCc2cnccn2)CCN1Cc1ccc(C)cc1 (stereo unspecified)

1. -6.08
2. -20.1
3. 3.5
4. 7.4
5. 3.32
6. -18.5
7. -5.64

Report cytotoxicity at 70.5 h for every entry below.
1. O=C(Nc1ccc(CC(=O)N2CCCC2)cc1)NC1CC1
2. O=C(NCc1cc(N2CCOCC2)ncn1)c1cccc(CO)n1
3. CCn1nc2c(cc1=O)CN(CC(=O)Nc1cc(C(C)C)no1)CC2

[-7.44, 5.15, -8.8]

For each of the compounds below, state cytotoxicity at 70.5 h.
1. CC(C)NC(=O)[C@H]1CCS(=O)(=O)[C@@H]2CN(c3ncc(F)cn3)C[C@H]12
2. Cc1cc(N2CCC(C(=O)O)(n3ccc(C(C)C)n3)CC2)nc(N)n1
3. CNc1ccnc(N2CC[C@@](O)(C3CCOCC3)[C@H](C)C2)n1
4. COc1ccc(NC(=O)N2CCCCCC2c2ccncc2)cn1 (stereo unspecified)
5. Cc1occc1C(=O)N1C[C@@H]2OCCN(CCN3CCCC3)[C@@H]2C1
6. CC(C)c1noc(CN(C)C(=O)C2COc3ccccc3C2)n1 (stereo unspecified)

1. -2.87
2. 6.37
3. -7.76
4. -6.87
5. -3.12
6. -7.56

Hi team, please reply with cytotoxicity at 70.5 h for each item in this list.
1. Cc1ccc(C(=O)NCCCC2(C3OCCO3)CCOCC2)cc1C
2. Cc1ccc(NCc2ccco2)cc1N1CCOC1=O

1. 1.93
2. -16

Items follow; give cytotoxicity at 70.5 h for each.
1. COc1ccccc1CC(=O)N(CCN1CCOCC1)Cc1ccco1
2. CN1C(=O)CCCC12CCCN(Cc1cccs1)C2 (stereo unspecified)
3. CCn1c(C)nnc1CN(C)C1CCN(CCn2cccn2)C1 (stereo unspecified)
4. Cc1cnn(CC(C)NCc2csc(-c3ccco3)n2)c1 (stereo unspecified)
5. Cc1nccc(NCc2cc3n(n2)CCCN(C(=O)C2CCC2)C3)n1
6. CNC(=O)CC1CC2(CCN(S(C)(=O)=O)CC2)c2ccccc21 (stereo unspecified)

1. -1.43
2. -6.68
3. 7.42
4. 4.15
5. 13.7
6. -0.621

Please state, for each entry, its recorded cytotoxicity at 70.5 h.
1. O=C(CCn1cncn1)NC1(c2cccc(Br)c2)CCC1
2. Cn1cc(CN2CCc3ncn(C)c3C2COCc2ccccc2)cn1 (stereo unspecified)
3. CN1CCCC(Cc2ccnc3ccncc23)CC1 (stereo unspecified)
4. Cc1cc2nc(C(C)C)cc(NCCNc3ncccc3C)n2n1
5. CCOc1ccc2cc(C(=O)NCCC(=O)N(C)C)[nH]c2c1
6. CC(=O)N1CCN(C(=O)C2CCN(c3cccnn3)C2)CC1 (stereo unspecified)
7. Cc1nn(C)c(N2CCOCC2)c1CNC(c1ccccc1)C1CC1 (stereo unspecified)
8. Cc1cc(NCCNc2cccnc2)nc(-c2ccccc2O)n1

1: -2.65; 2: 2.01; 3: 34.2; 4: 12.1; 5: -7.75; 6: -0.877; 7: 11.3; 8: 3.73

Dear colleague, could you send me cytotoxicity at 70.5 h for each of the items below? Thanks.
1. Cc1nccn1CCN(C)C(=O)C1CCN(C(=O)C2CCC2)CC1
2. O=C(NCCOc1ncc(Cl)cc1Cl)c1ccncc1F
3. O=C(O)c1cc2n(n1)CCCN(C(=O)CCc1c[nH]c3ccccc13)C2
4. CC(C)C(O)C(C)(C)CNC(=O)NCc1ccc(-n2cncn2)cc1 (stereo unspecified)

11.3
0.0766
-16.4
-1.82

Reference for the values: ChEMBL document CHEMBL3507680
